Could you please report measured inhibition for the items listed next?
assay_protocol: blocks MITF activity, primary screen, MITF inhibitor project, cell-based, luminescence (AID 2240);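 further: human melanocyte line stably carrying TRPM1 promoter luciferase reporter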
particulars: TRPM1 promoter luciferase, 24 h, hits give high values, concentration not given here
About 100 (0.27%) of roughly 37,000 compounds were called active. This excerpt belongs to a sample that is enriched for actives.
Give bare numbers, in %.

Worked examples, 3 molecules total:
>>> recorded_result("O=C(CSc1nc2ccccc2s1)c1cc2ccccc2oc1=O")
-18
>>> recorded_result("NC(=S)c1cnn2c(C(F)(F)F)cc(C(F)(F)F)nc12")
6.61
>>> recorded_result("C/C=C(/C)C(=O)O[C@H]1CC(C)(C)C[C@H]2C3=CCC4[C@@]5(C)CC[C@H](O[C@@H]6O[C@H](C(=O)O)[C@@H](O[C@@H]7O[C@H](CO)[C@H](O)[C@H](O)[C@H]7O[C@@H]7O[C@H](CO)[C@@H](O)[C@H](O)[C@H]7O)[C@H](O)[C@H]6O[C@@H]6O[C@@H](C)[C@H](O)[C@@H](O)[C@H]6O)C(C)(C)C5CC[C@@]4(C)[C@]3(C)[C@@H](O)[C@@H](O)[C@@]12CO (stereo not given in full)")
93.6

For each of the molecules below, note its inhibition.
1. C[C@H]1CN([C@@H](C)CO)C(=O)c2cccc(NC(=O)Nc3cccc4ccccc34)c2O[C@@H]1CN(C)C(=O)NC1CCCCC1
2. C[C@H]1CN([C@@H](C)CO)C(=O)Cc2cc(NS(C)(=O)=O)ccc2O[C@@H]1CN(C)CC1CC1

RESULT:
1. 0.565
2. -11.8
